Taken from the supplement of paper PMC12338614.

B1: library; numbered along this chain (parent)
chain: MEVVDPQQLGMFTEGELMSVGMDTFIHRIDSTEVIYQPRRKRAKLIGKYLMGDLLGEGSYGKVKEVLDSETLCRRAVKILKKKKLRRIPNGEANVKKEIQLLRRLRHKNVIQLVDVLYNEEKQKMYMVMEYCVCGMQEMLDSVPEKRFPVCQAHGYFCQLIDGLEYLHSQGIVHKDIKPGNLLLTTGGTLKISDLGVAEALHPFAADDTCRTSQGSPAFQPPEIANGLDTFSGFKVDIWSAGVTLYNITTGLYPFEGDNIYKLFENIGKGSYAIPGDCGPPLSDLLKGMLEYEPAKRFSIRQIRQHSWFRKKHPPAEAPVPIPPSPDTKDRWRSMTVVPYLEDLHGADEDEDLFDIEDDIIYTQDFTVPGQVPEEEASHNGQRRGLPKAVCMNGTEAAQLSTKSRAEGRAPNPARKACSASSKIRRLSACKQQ

Variants of: B1
Test: STK11 functional score (HeLa growth suppression), rescaled enrichment; synonymous median = 1, nonsense median = 0 (normalised score)
Conditions: with HeLa; variant type: missense
reported.property: STK11 functional score

> print(dat)
    variant.designation       reported.property  data.value
 1                F204V  STK11 functional score        1.24
 2                G385L  STK11 functional score       0.869
 3                V133Y  STK11 functional score        1.55
 4                T336M  STK11 functional score       0.732
 5                S240V  STK11 functional score        0.33
 6                L353W  STK11 functional score        1.12
 7                L353D  STK11 functional score        1.61
 8                S283Q  STK11 functional score        1.51
 9                S271A  STK11 functional score        1.11
10                C132L  STK11 functional score       0.813
11                G276L  STK11 functional score        1.11
12                D352Q  STK11 functional score       0.828
13                D365Y  STK11 functional score        1.38
14                V110I  STK11 functional score       0.703
15                V110Y  STK11 functional score       0.623
16                 K84P  STK11 functional score        1.52
17                S283D  STK11 functional score        1.29
18                N266S  STK11 functional score       0.965
19                D284F  STK11 functional score       0.579
20                A397D  STK11 functional score        1.32
21                H379Y  STK11 functional score        1.39
22                E407T  STK11 functional score        1.61
23                A198G  STK11 functional score        1.28
24                C134M  STK11 functional score       0.248
25                V320F  STK11 functional score        1.07
26                K146E  STK11 functional score        1.14
27                D350V  STK11 functional score        1.19
28                 I99V  STK11 functional score       0.876
29                A200S  STK11 functional score       0.652
30                L400D  STK11 functional score        1.19
31                K235Q  STK11 functional score        1.58
32                I322W  STK11 functional score        1.18
33                 R74K  STK11 functional score        1.11
34                L117E  STK11 functional score        1.45
35                Q159R  STK11 functional score        1.03
36                Q159D  STK11 functional score        1.12
37                A225L  STK11 functional score        1.52
38                W308F  STK11 functional score        1.02
39                D327W  STK11 functional score        1.57
40                Y156C  STK11 functional score       0.324
41                G385A  STK11 functional score        1.46
42                P369D  STK11 functional score        1.61
43                 I88V  STK11 functional score        0.87
44                F231N  STK11 functional score        1.69
45                H306G  STK11 functional score       0.475
46                 V63R  STK11 functional score     -0.0566
47                 A43I  STK11 functional score        1.18
48                 K81L  STK11 functional score         1.1
49                N393G  STK11 functional score        1.36
50                S240N  STK11 functional score        1.11
51                V114L  STK11 functional score       0.271
52                F219P  STK11 functional score       0.116
53                R331Y  STK11 functional score        1.35
54                P373L  STK11 functional score        1.13
55                D348V  STK11 functional score        0.78
56                G288S  STK11 functional score       0.938
57                S193V  STK11 functional score        0.77
58                P222T  STK11 functional score       0.499
59                T367S  STK11 functional score        1.51
60                 A43T  STK11 functional score        1.43
61                 S19Y  STK11 functional score        1.01
62                D365V  STK11 functional score        1.14
63                 K97G  STK11 functional score       0.699
64                S428V  STK11 functional score        1.56
65                T209L  STK11 functional score           1
66                N380M  STK11 functional score        1.55
67                E349W  STK11 functional score        1.14
68                E145A  STK11 functional score       0.952
69                G385H  STK11 functional score        1.56
70                T363H  STK11 functional score        1.17
71                A397G  STK11 functional score        1.14
72                E130W  STK11 functional score     -0.0647
73                S216P  STK11 functional score       0.894
74                V133R  STK11 functional score       0.519
75                E265L  STK11 functional score        1.18
76                  Q7S  STK11 functional score        1.02
77                E130M  STK11 functional score      0.0424
78                N181Q  STK11 functional score       0.708
79                G227P  STK11 functional score         1.1
80                V390C  STK11 functional score        1.06
81                L102V  STK11 functional score       0.912
82                G180A  STK11 functional score        1.34
83                G381Y  STK11 functional score        1.37
84                Q100S  STK11 functional score         1.1
85                R426C  STK11 functional score        1.12
86                G381R  STK11 functional score        1.48
87                R425W  STK11 functional score        1.03
88                G381M  STK11 functional score        1.57
89                I172N  STK11 functional score       0.174
90                P179T  STK11 functional score       0.709
91                E199H  STK11 functional score        1.39
